Test target: CV S-protein construct 6 trimer TP31001F (SARS-CoV-2, UniProt P0DTC2 14-1208)
Assay summary: SPR
Recorded metric: pKd
Convention used: pKd is expressed as -log10 of the molar concentration.

Past entries and their recorded results:
1. variant 5-3 (Fc fusion) VHH: EVQLVESGGGLVQPGGSLRLSCAASGSIFSIDVMGWFRQAPGKEREFVAGISWSGDSTLYADSVKGRFTISADNSKNTAYLQMNSLKPEDTAVYYCAAFDGYTGSDWGQGTLVTVSS	8.25
2. variant 5-67 (Fc fusion) VHH: EVQLVESGGGLVQPGGSLRLSCAASGFNVNDYAMGWFRQAPGKEREFVAGITSSVGVTNYADSVKGRFTISADNSKNTAYLQMNSLKPEDTAVYYCAADIFFVNWGRGTLVTVSS	9.00
3. variant 6-12 (Fc fusion) VHH: EVQLVESGGGLVQPGGSLRLSCAASGSTYTTYSMGWFRQAPGKEREFVAAISGSENVTSYADSVKGRFTISADNSKNTAYLQMNSLKPEDTAVYYCARVDDYMDVWGQGTLVTVSS	8.85
4. variant 5-39 (Fc fusion) VHH: EVQLVESGGGLVQPGGSLRLSCAASGVTLDLYAMGWFRQAPGKEREFVAGIRWTDAYTEYADSVKGRFTISADNSKNTAYLQMNSLKPEDTAVYYCAVDIDYRDWGQGTLVTVSS	7.42
5. variant 6-68 (Fc fusion) VHH: EVQLVESGGGLVQPGGSLRLSCAASGFTLSDRAMGWFRQAPGKEREYVAHITAGGLSNYADSVKGRFTISADNSKNTAYLQMNSLKPEDTAVYYCVHLASQTGAGYFDLWGQGTLVTVSS	9.15

Lookup result for variant 5-66 (Fc fusion) VHH: EVQLVESGGGLVQPGGSLRLSCAASGNTFTINVMGWFRQAPGKEREFVAAINWNGGTTLYADSVKGRFTISADNSKNTAYLQMNSLKPEDTAVYYCAAFDGYSGIDWGQGTLVTVSS ; measured pKd: 7.00
